- Test system: SF-295
- assay notes: NCI tumour cell line growth inhibition, 48 h
Calls of active or inactive are those of the source. Cut-off read from the data, not from the text of the source: active = GI50 up to about 1.1 µM and inactive = higher.
Please reply with one of these outcomes: active, inactive

Look up the recorded call for Cc1ccc(C2(N3CCCC3)OC(C)(C)c3cccc4cccc2c34)cc1 (configuration not stated) in this test.
inactive

Likewise for CCOC(=O)NC(=O)c1cn(C(CC)COC(=O)NCCCCCCNC(=O)OCC(CC)n2cc(C(=O)NC(=O)OCC)c(=O)[nH]c2=O)c(=O)[nH]c1=O (configuration not stated) ?
inactive

Likewise for Clc1ccc(OCc2nnc(CCCCCCCCc3nnc(COc4ccc(Cl)cc4)n3Nc3ccccc3)n2Nc2ccccc2)cc1 ?
active

Likewise for C[C@H](CCC(=O)O)[C@H]1CC[C@H]2[C@@H]3CC[C@@H]4C[C@H](O)CC[C@]4(C)[C@H]3C[C@H](O)[C@]12C ?
inactive

Likewise for C#CCn1c(=O)c(C)cn(/C(=C/C(=O)OCC)C(=O)OCC)c1=O ?
inactive

Likewise for CCOC(=O)/C(=C\c1ccc(N(CCC#N)CCC#N)cc1C)NC(=O)/C=C/c1ccccc1 ?
inactive

Likewise for COC(=O)/C(C#N)=C1\NC(=O)c2ccccc21 ?
inactive

Likewise for CCOc1ccc(/N=C/C=C(\Cl)c2ccc3ccccc3c2)cc1 ?
inactive

Likewise for CCN(CC)CC(O)c1ccc2ccc3ccccc3c2c1 (configuration not stated) ?
inactive

Likewise for COc1ccc(-c2coc3cc(OC)cc(O)c3c2=O)cc1 [4',7-DIMETHOXY-5-HYDROXYGENISTEIN] ?
inactive

Likewise for C=C(C)C1Cc2c(c3ccccc3n(C)c2=O)O1 (configuration not stated) ?
inactive

Likewise for CCCCCCCCC(=O)NCCCNCCCNC(=O)CCCCCCCC ?
inactive

Likewise for C[s+]1c2ccccc2c2ccccc21 ?
inactive

Likewise for O=c1/c(=C/c2ccccc2[N+](=O)[O-])sc2nnc(-c3cccnc3)n12 ?
inactive

Likewise for O=C1c2ccccc2C(=O)c2oc(Br)cc21 ?
active

Likewise for O=C1Cc2c([nH]c3ccc([N+](=O)[O-])cc23)-c2ccccc2N1 ?
active

Likewise for C/C1=C/C2OC(=O)C3(C)C2C(CC2(C)OC1=CC2=O)OC3(O)C(C)C (configuration not stated) ?
inactive

Likewise for Cc1ccc(CC(Cc2ccccc2C)C(=O)O)c(C(=O)O)c1 (configuration not stated) ?
inactive

Likewise for CC(Oc1ccc2c(-c3ccc(Cl)cc3)cc(=O)oc2c1)C(=O)O (configuration not stated) ?
inactive

Likewise for NC1(CCCCCCCCCCC(=O)O)CNCCNCCNCCNC1 ?
inactive

Likewise for O=C(O)Cc1ccccc1 ?
inactive

Likewise for Cc1ccc(/N=C2\N=C(N3CC(C)OC(C)C3)c3ccccc32)cc1 (configuration not stated) ?
inactive

Likewise for Cn1ncc2c(Nc3ccc(Cl)cc3)c3ccccc3nc21 ?
inactive

Likewise for O=C1N[C@@H](c2c[nH]c3cc(Br)ccc23)C(=O)N[C@H]1c1c[nH]c2cc(Br)ccc12 ?
inactive

Likewise for N[C@H]1CCN(c2c(F)cc3c(=O)c(C(=O)O)cn4c3c2Oc2cc3c(ccc5ccccc53)cc2-4)C1 ?
inactive

Likewise for COC(=O)C12CC(C3CC31)C1CC12 (configuration not stated) ?
inactive

Likewise for O=C1C[C@@H](Sc2ccccc2)C2(OCCO2)[C@H]2ON3CCC[C@@H]3[C@@H]12 ?
inactive
